For each record, write down the corresponding pKi.
- tested_target: human 5-hydroxytryptamine-2C (h5-HT2C) receptor (Homo sapiens)
- Construct: expressed in transfected cells; host or cells: CHO (Chinese Hamster Ovary) cells; membranes
- assay_comment: [125I]DOI binding to membranes of CHO cells expressing the human 5-HT2C receptor
- assay_setup: [125I]DOI radioligand, CHO cell membranes, room temperature 60 min; read-out: 5-HT2C Affinity Ki
// scale note: pKi = -log10(conc_M); give the bare number

Can you look up the measured pKi of NCC1Cc2c(cccc2-c2ccccc2)O1 (racemic) [Example 1] for me? 7.37

Can you look up the measured pKi of NCC1Cc2cccc(-c3ccc(F)cc3)c2O1 (single isomer, unassigned; (-)) [Example 75] for me? 6.99

Can you look up the measured pKi of CNCC1Cc2cc(OC)cc(-c3cccc(F)c3F)c2O1 (racemic) for me? 7.46

Can you look up the measured pKi of NCC1Cc2cccc(-c3ccc(Cl)cc3)c2O1 (single isomer, unassigned; (-)) [Example 78] for me? 7.39

====

For each record, write down the corresponding Emax.
- tested_target: human 5-HT2C receptor (Homo sapiens, UniProt P28335)
- Sequence (P28335 33-458): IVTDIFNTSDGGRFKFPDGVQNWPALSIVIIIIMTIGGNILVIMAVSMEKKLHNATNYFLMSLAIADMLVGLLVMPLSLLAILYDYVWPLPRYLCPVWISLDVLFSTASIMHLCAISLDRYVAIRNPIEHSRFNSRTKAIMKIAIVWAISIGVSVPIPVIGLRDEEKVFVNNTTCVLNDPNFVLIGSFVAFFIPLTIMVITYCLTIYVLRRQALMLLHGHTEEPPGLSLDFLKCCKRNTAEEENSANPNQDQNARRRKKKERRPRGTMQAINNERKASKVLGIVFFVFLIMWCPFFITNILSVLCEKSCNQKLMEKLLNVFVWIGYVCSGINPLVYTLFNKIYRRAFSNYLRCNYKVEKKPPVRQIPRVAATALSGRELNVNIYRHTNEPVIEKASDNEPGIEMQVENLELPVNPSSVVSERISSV
- assay_comment: 5-HT2C receptor-stimulated calcium mobilization (FLIPR) in CHO cells
- Format: cell-based
- assay_setup: CHO, percentage of the response observed with a maximally effective concentration of 5-HT; read-out: 5-HT2C Function Emax (%)
Write the numeric value and follow it with the unit.

Can you look up the measured Emax of Cc1cc2c(c(-c3cc(Cl)ccc3Cl)c1)OC(CN)C2 (racemic) for me? 90%

Can you look up the measured Emax of CNCC1Cc2cc(F)cc(-c3cc(Cl)ccc3Cl)c2O1 (racemic) [Example 449] for me? 90%

Can you look up the measured Emax of NCC1Cc2ccc(F)c(-c3ccccc3Cl)c2O1 (racemic) for me? 100%

Can you look up the measured Emax of CNCC1Cc2cc(Cl)cc(-c3cc(Cl)ccc3Cl)c2O1 (racemic) [Example 471] for me? 90%

Can you look up the measured Emax of NCC1Cc2cc(F)cc(-c3ccoc3)c2O1 (racemic) for me? 90%

Can you look up the measured Emax of Cc1cc2c(c(-c3ccccc3C)c1)OC(CN)C2 (racemic) for me? 90%

Can you look up the measured Emax of NCC1Cc2cccc(-c3cccc(Cl)c3)c2O1 (racemic) for me? 100%

Can you look up the measured Emax of NCC1Cc2cccc(-c3c(Cl)cccc3Cl)c2O1 (single isomer, unassigned; (-)) [Example 141] for me? 90%

Can you look up the measured Emax of CCNCC1Cc2cccc(-c3c(Cl)cccc3Cl)c2O1 (racemic) for me? 80%

====

- tested_target: human 5-hydroxytryptamine-2C (h5-HT2C) receptor (Homo sapiens, UniProt P28335)
- Construct: expressed in transfected cells; host or cells: CHO (Chinese Hamster Ovary) cells; membranes
- assay_comment: [125I]DOI binding to membranes of CHO cells expressing the human 5-HT2C receptor
- assay_setup: [125I]DOI radioligand, CHO cell membranes, room temperature 60 min; read-out: 5-HT2C Affinity Ki
pKi: −log10 of the molar value.
Everything with pKi lower than 7 is Criterion not met; everything else, including exactly 7, is Criterion met.

Is it the case that Cc1ccc(-c2cc(F)c3c(c2)CC(CN)O3)cc1 (racemic) has pKi reaching or exceeding 7? Criterion not met

Is it the case that CC(C)c1cccc2c1OC(CN)C2 (racemic) [Example 18] has pKi reaching or exceeding 7? Criterion met

Is it the case that COc1ccc(Nc2cccc3c2OC(CN)C3)cc1 (racemic) has pKi reaching or exceeding 7? Criterion not met

Is it the case that NCC1Cc2cc(C(F)(F)F)cc(-c3cccnc3)c2O1 (racemic) has pKi reaching or exceeding 7? Criterion met

Is it the case that COc1cccc(-c2cc(C(F)(F)F)cc3c2OC(CN)C3)c1 (racemic) has pKi reaching or exceeding 7? Criterion met

====

- tested_target: human 5-HT2C receptor (Homo sapiens, UniProt P28335)
- assay_comment: 5-HT2C receptor-stimulated calcium mobilization (FLIPR) in CHO cells;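 further: Fluo-3-AM fluorescence read on FLIPR every 1 s, agonist added after 10 baseline reads, response taken as peak minus lowest raw fluorescence count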
- Format: cell-based
- assay_setup: CHO, percentage of the response observed with a maximally effective concentration of 5-HT; read-out: 5-HT2C Function Emax (%)
For each record, write down the corresponding Emax.
Please give a number only; it is taken to be in %.

What value of Emax on human 5-HT2C receptor (Homo sapiens, UniProt P28335) does Cc1ccc(Cl)cc1-c1cccc2c1OC(CN)C2 (racemic) have? 100

What value of Emax on human 5-HT2C receptor (Homo sapiens, UniProt P28335) does NCC1Cc2cc(Cl)cc(-c3ccc(Cl)cc3Cl)c2O1 (single isomer, unassigned; (-)) [Example 252] have? 100

What value of Emax on human 5-HT2C receptor (Homo sapiens, UniProt P28335) does NCC1Cc2cccc(-c3ccc(Cl)cc3Cl)c2O1 (racemic) [Example 83] have? 100

What value of Emax on human 5-HT2C receptor (Homo sapiens, UniProt P28335) does Cc1cccc(C)c1-c1cc(F)cc2c1OC(CN)C2 (racemic) have? 95

What value of Emax on human 5-HT2C receptor (Homo sapiens, UniProt P28335) does NCC1Cc2cc(F)cc(-c3ccccc3)c2O1 (racemic) have? 80

====

- tested_target: human 5-hydroxytryptamine-2C (h5-HT2C) receptor (Homo sapiens, UniProt P28335)
- Construct: expressed in transfected cells; host or cells: CHO (Chinese Hamster Ovary) cells; membranes
- Sequence (P28335 33-458): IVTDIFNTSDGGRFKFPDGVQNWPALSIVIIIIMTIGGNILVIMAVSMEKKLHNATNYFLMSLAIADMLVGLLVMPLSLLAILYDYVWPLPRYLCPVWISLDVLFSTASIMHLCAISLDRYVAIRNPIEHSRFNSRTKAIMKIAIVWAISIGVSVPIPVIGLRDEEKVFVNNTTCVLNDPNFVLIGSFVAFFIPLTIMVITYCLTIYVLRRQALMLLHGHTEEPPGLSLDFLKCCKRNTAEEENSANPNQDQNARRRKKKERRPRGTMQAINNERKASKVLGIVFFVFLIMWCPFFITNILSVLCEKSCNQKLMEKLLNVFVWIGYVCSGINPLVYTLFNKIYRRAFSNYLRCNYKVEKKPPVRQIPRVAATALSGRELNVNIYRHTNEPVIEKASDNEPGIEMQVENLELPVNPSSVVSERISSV
- assay_comment: [125I]DOI binding to membranes of CHO cells expressing the human 5-HT2C receptor
- assay_setup: [125I]DOI radioligand, CHO cell membranes, room temperature 60 min; read-out: 5-HT2C Affinity Ki
experimental_readout: Ki
Write the numeric value and follow it with the unit.

Can you look up the measured Ki of CNCC1Cc2ccc(F)c(-c3ccccc3Cl)c2O1 (racemic) [Example 402] for me? 0.24 nM

Can you look up the measured Ki of Cc1cc(Cl)ccc1-c1cccc2c1OC(CN)C2 (racemic) [Example 167] for me? 3.1 nM

Can you look up the measured Ki of NCC1Cc2cc(Cl)cc(-c3ccc(Cl)cc3Cl)c2O1 (single isomer, unassigned; (-)) [Example 252] for me? 1.1 nM

Can you look up the measured Ki of Cc1cc2c(c(-c3c(Cl)cccc3Cl)c1)OC(CN)C2 (racemic) [Example 302] for me? 0.3 nM

Can you look up the measured Ki of NCC1Cc2cc(F)cc(-c3c(Cl)cccc3Cl)c2O1 (single isomer, unassigned; (+)) [Example 551] for me? 0.55 nM

Can you look up the measured Ki of NCC1Cc2cccc(Nc3ccccc3F)c2O1 (racemic) [Example 194] for me? 127 nM

Can you look up the measured Ki of NCC1Cc2cccc(Nc3ccc(C(F)(F)F)cc3)c2O1 (racemic) [Example 177] for me? 353 nM

Can you look up the measured Ki of CNCC1Cc2cc(C(F)(F)F)cc(-c3cc(F)ccc3F)c2O1 (racemic) [Example 523] for me? 61 nM

====

- tested_target: human 5-HT2C receptor (Homo sapiens)
- Sequence (P28335 33-458): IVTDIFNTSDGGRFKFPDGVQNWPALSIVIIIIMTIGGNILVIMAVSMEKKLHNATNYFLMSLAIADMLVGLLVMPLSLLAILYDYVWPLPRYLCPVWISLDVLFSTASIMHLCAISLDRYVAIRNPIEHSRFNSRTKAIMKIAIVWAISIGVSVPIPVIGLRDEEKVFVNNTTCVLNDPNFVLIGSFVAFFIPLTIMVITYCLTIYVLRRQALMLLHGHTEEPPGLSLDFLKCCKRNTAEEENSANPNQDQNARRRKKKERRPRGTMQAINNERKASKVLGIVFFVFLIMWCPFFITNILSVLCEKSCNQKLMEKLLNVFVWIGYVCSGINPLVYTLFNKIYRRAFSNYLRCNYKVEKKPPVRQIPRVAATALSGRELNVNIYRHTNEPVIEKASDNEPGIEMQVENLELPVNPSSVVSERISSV
- assay_comment: 5-HT2C receptor-stimulated calcium mobilization (FLIPR) in CHO cells
- Assay type: cell-based
- assay_setup: CHO, percentage of the response observed with a maximally effective concentration of 5-HT; read-out: 5-HT2C Function Emax (%)
For each record, write down the corresponding Emax.
Write the numeric value and follow it with the unit.

Can you look up the measured Emax of Cc1cccc(-c2cc(Cl)cc3c2OC(CN)C3)c1C (racemic) for me? 80%

Can you look up the measured Emax of Cc1c(Cl)cc(C(C)C)c2c1CC(CN)O2 (racemic) [Example 21] for me? 85%

Can you look up the measured Emax of NCC1Cc2cc(C(F)(F)F)cc(-c3cc(F)ccc3F)c2O1 (racemic) for me? 90%

Can you look up the measured Emax of NCC1Cc2cccc(-c3cccnc3)c2O1 (single isomer, unassigned; (+)) [Example 171] for me? 100%

Can you look up the measured Emax of COc1cccc(-c2cccc3c2OC(CN)C3)c1 (single isomer, unassigned; (+)) [Example 133] for me? 80%

Can you look up the measured Emax of NCC1Cc2cccc(-c3cccc(F)c3F)c2O1 (racemic) for me? 100%

Can you look up the measured Emax of NCC1Cc2cc(F)cc(-c3ccncc3)c2O1 (racemic) for me? 90%

Can you look up the measured Emax of CNCC1Cc2cccc(-c3cccc(Cl)c3)c2O1 (racemic) for me? 70%

Can you look up the measured Emax of NCC1Cc2cccc(-c3ccc(Cl)cc3)c2O1 (racemic) [Example 76] for me? 90%

Can you look up the measured Emax of NCC1Cc2cc(Cl)cc(-c3ccc(Cl)cc3Cl)c2O1 (racemic) [Example 251] for me? 90%

Can you look up the measured Emax of NCC1Cc2cc(F)cc(-c3ccsc3)c2O1 (racemic) for me? 80%

Can you look up the measured Emax of Fc1cc2c(c(-c3c(Cl)cccc3Cl)c1)OC(CN1CCCCC1)C2 (racemic) for me? 40%

Can you look up the measured Emax of CNCC1Cc2cc(OC)cc(-c3cc(C)ccc3C)c2O1 (racemic) for me? 80%

Can you look up the measured Emax of COc1ccccc1-c1cc(C)cc2c1OC(CN)C2 (racemic) for me? 100%

Can you look up the measured Emax of NCC1Cc2cccc(-c3ccc(F)cc3F)c2O1 (single isomer, unassigned; (+)) [Example 147] for me? 90%

Can you look up the measured Emax of CNCC1Cc2cc(OC)cc(-c3cccc(C)c3C)c2O1 (racemic) for me? 60%

Can you look up the measured Emax of NCC1Cc2cc(C(F)(F)F)cc(-c3ccccc3Cl)c2O1 (racemic) for me? 90%

Can you look up the measured Emax of CNCC1Cc2cc(F)cc(-c3cc(Cl)ccc3Cl)c2O1 (single isomer, unassigned; (+)) [Example 450] for me? 100%
